assay: Selectivity ratio of IC50 for MMP8 to IC50 for MMP13
Attribute: Ratio IC50
parameter-measured: Ratio IC50

>>> recorded_result("CNC(=O)[C@H](NC(=O)c1ccc(-c2cccc(CNC(=O)c3cccc(C(F)(F)F)n3)c2)o1)C1CCCCC1")
"> 2300"
>>> recorded_result("CNC(=O)[C@H](NC(=O)c1ccc(-c2cccc(CNC(=O)c3csc(C)n3)c2)o1)C1CCCCC1")
1800
>>> recorded_result("CNC(=O)[C@@H](NC(=O)c1ccc(-c2cccc(CNC(=O)c3cccc(C(F)(F)F)n3)c2)o1)C(C)(C)O")
"> 810"
>>> recorded_result("CNC(=O)[C@H](NC(=O)c1ccc(-c2cccc(CNC(=O)c3ccnc(Cl)n3)c2)o1)C1CCCCC1")
"> 7100"
>>> recorded_result("CNC(=O)[C@H](NC(=O)c1ccc(-c2cccc(CNC(=O)c3occc3C)c2)o1)C1CCCCC1")
"> 110"
>>> recorded_result("CNC(=O)[C@@H](NC(=O)c1ccc(-c2cccc(CNC(=O)c3ccnc(C(F)(F)F)n3)c2)o1)C1CCOCC1")
"> 11000"
>>> recorded_result("CNC(=O)[C@H](NC(=O)c1ccc(-c2cccc(CNC(C)=O)c2)o1)C1CCCCC1")
"> 7"
>>> recorded_result("CNC(=O)[C@H](NC(=O)c1ccc(-c2cccc(CNC(=O)c3ccncc3)c2)o1)C1CCCCC1")
"> 660"
>>> recorded_result("CNC(=O)[C@H](NC(=O)c1ccc(-c2cccc(CNC(=O)c3ccco3)c2)o1)C1CCCCC1")
"> 270"
>>> recorded_result("CNC(=O)[C@@H](NC(=O)c1ccc(-c2cccc(CNC(=O)c3cccc(C(F)(F)F)n3)c2)o1)C(C)C")
"> 3600"
>>> recorded_result("CNC(=O)[C@H](NC(=O)c1ccc(-c2cccc(CNC(=O)c3cccnc3)c2)o1)C1CCCCC1")
48
>>> recorded_result("CCc1cncc(C(=O)NCc2cccc(-c3ccc(C(=O)N[C@@H](C(=O)NC)C4CCCCC4)o3)c2)c1")
"> 170"
>>> recorded_result("CNC(=O)[C@H](NC(=O)c1ccc(-c2cccc(CNC(=O)c3cn4ccc(C)cc4n3)c2)o1)C1CCCCC1")
"> 37"
>>> recorded_result("CNC(=O)[C@H](NC(=O)c1ccc(-c2cccc(CNC(=O)c3ccncn3)c2)o1)C1CCCCC1")
"> 2000"
>>> recorded_result("CNC(=O)[C@H](NC(=O)c1ccc(-c2cccc(CNC(=O)c3cccc(C)n3)c2)o1)C1CCCCC1")
"> 4900"
>>> recorded_result("CNC(=O)[C@@H](NC(=O)c1ccc(-c2cccc(CNC(=O)c3ccnc(C(F)(F)F)n3)c2)o1)C1CC1")
"> 560"
>>> recorded_result("CNC(=O)[C@H](NC(=O)c1ccc(-c2cccc(CNC(=O)c3ccoc3C)c2)o1)C1CCCCC1")
"> 61"
